tested on: UmuDAb N100D (Acinetobacter baumannii ATCC 17978 JH, UniProt A0A0D5YJU0 1-203, N100D)
measurement notes: EMSA; Bmax < 0.90; […] (10x = 100 mM Tris, 500 mM KCl, 10 mM DTT, […]
test settings: protein: recombinant; chain copies: 2; label: 5' IRDye700 on both strands; blunt
parameter measured: pKd
A value of pKd is the negative decimal logarithm of a concentration given in moles per litre.

## Input Please give the measured pKd for this binder: WT 37 bp UmuDAb operator probe (dsDNA) DNA 1: TCGTCAACTTGAAAATGTAACTTTTTCAAGTTACATT DNA 2: AATGTAACTTGAAAAAGTTACATTTTCAAGTTGACGA
## Output 6.51
